Each recorded value in this set is attributed to patent US12398138B2.

Biological target: UniProt P11362
experimental-readout: pIC50
# pIC50 is unitless: minus log10 of the molar concentration; print number only

Entry C=CC(=O)N1CC[C@H](c2cc(-c3cc4cc(C)cc(OC)c4s3)c3c(N)ncnn23)C1 ; pIC50 = 9.70

====

Assay: Pharmacokinetic investigation in dogs
Type: in vivo
Conditions: male, dog, plasma, 1 mg/kg; beagle dogs, intravenous administration (1 mpk); read-out: Half-life T1/2 (converted)
experimental-readout: half-life (h)
All answers are understood in h, so give the number only.

C=CC(=O)N1CC[C@H](c2cc(-c3cc4cc(C)cc(OC)c4s3)c3c(N)ncnn23)C1 has a reported half-life of 3

# half-life of C=CC(=O)N1CC[C@H](n2nc(C#Cc3cc(OC)cc(OC)c3)c3c(N)ncnc32)C1 [reference compound 1, reference compound] = 0.8

====

Target: FGFR1 (V561M) (Homo sapiens, UniProt P11362, V561M)
Sequence (P11362 22-822 V561M): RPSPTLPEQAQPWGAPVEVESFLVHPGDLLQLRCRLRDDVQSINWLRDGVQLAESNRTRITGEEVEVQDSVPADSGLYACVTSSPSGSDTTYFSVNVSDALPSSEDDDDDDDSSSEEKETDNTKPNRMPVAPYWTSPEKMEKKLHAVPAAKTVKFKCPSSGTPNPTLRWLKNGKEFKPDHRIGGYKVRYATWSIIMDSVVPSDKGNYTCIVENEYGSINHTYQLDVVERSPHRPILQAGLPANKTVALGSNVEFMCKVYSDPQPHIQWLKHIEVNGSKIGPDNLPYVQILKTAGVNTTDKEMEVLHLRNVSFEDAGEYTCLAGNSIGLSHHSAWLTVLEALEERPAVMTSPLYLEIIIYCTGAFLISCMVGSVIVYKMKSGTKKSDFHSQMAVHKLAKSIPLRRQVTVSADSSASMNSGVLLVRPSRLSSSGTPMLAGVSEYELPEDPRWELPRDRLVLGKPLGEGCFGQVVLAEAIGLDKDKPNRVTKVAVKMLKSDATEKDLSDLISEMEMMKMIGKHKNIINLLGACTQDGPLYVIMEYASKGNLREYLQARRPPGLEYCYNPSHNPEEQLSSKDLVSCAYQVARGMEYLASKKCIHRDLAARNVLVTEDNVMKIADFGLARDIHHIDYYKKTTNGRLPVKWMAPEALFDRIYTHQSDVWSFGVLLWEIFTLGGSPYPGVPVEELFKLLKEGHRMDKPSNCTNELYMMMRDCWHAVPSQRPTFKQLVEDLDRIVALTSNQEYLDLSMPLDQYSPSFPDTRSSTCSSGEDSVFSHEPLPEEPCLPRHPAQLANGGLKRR
Test: 33P isotope-labeled kinase activity assay, mutant FGFR1 (V561M)
Conditions: ATP 10 μM
experimental-readout: IC50 (nM)
Reply numerically in nM, unit not repeated.

Measured IC50, C=CC(=O)N1CC[C@H](c2cc(-c3cc4cc(C)cc(OC)c4s3)c3c(N)ncnn23)C1 [compound represented by Formula (I)] : 38

====

Target: FGFR3 (K650M) (Homo sapiens, UniProt P22607, K650M)
Sequence (P22607 23-806 K650M): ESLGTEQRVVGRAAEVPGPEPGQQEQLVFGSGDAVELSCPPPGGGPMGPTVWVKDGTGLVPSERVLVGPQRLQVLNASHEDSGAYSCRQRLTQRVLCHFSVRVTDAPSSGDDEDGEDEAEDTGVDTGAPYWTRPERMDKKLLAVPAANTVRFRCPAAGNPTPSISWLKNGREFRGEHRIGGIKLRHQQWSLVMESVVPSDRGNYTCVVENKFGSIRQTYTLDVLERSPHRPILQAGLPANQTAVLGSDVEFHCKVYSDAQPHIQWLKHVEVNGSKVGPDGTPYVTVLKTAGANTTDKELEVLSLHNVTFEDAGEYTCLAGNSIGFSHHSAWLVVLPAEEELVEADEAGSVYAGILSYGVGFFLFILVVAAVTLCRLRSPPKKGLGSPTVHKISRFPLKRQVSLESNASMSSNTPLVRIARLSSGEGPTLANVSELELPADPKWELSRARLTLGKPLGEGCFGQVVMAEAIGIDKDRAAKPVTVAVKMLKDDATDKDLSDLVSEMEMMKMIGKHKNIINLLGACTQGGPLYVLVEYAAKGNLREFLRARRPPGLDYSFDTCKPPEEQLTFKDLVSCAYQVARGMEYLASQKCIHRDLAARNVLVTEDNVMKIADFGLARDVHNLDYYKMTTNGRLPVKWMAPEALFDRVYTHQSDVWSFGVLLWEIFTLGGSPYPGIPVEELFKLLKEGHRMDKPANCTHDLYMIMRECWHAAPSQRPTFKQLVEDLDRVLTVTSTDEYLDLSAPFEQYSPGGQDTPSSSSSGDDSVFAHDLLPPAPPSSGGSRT
Test: 33P isotope-labeled kinase activity assay, mutant FGFR3 (K650M)
Conditions: ATP 2.5 μM
experimental-readout: IC50 (nM)
Provide the reading as a plain figure in nM.

Short answer for C=CC(=O)N1CC[C@H](c2cc(-c3cc4cc(C)cc(OC)c4s3)c3c(N)ncnn23)C1 : IC50 was 0.2

====

Kindly state bioavailability for each of the entries shown.
Assay: Pharmacokinetic investigation in dogs
Format: in vivo
Settings: male, dog, plasma, 5 mg/kg; beagle dogs, oral administration (5 mpk); read-out: Bioavailability F
I only need the number, in %, no unit after it.

Notebook: C=CC(=O)N1CC[C@H](n2nc(C#Cc3cc(OC)cc(OC)c3)c3c(N)ncnc32)C1 [reference compound 1, reference compound] , bioavailability read as 41

C=CC(=O)N1CC[C@H](c2cc(-c3cc4cc(C)cc(OC)c4s3)c3c(N)ncnn23)C1 yielded bioavailability of 88

====

Biological target: FGFR2 (V564F) (Homo sapiens, UniProt P21802, V564F)
Sequence (P21802 22-821 V564F): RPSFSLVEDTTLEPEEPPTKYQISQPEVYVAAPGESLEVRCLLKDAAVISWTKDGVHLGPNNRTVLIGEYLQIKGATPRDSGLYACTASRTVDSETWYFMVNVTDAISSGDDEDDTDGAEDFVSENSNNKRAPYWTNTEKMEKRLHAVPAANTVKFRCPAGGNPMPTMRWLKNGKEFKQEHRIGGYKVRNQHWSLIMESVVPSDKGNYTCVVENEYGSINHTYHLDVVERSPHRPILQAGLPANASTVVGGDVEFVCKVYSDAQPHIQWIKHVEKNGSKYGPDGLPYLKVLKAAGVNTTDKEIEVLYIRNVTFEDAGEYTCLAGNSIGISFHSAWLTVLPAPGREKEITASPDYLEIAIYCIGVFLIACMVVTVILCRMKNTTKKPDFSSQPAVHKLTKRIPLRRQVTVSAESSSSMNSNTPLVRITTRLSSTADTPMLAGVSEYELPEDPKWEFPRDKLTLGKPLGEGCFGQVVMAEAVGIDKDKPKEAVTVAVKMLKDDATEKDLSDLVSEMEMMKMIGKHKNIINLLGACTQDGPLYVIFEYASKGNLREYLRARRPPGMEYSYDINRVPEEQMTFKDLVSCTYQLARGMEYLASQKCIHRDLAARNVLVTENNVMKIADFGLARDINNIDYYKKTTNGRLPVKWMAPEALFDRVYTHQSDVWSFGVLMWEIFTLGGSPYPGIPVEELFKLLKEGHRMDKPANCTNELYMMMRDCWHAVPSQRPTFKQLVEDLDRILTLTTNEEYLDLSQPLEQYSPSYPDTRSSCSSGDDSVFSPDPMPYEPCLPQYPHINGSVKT
Assay: 33P isotope-labeled kinase activity assay, mutant FGFR2 (V564F)
Conditions: ATP 20 μM
experimental-readout: IC50 (nM)
Respond numerically; units are nM and should not be typed.

For reference, reported IC50 for C=CC(=O)N1CC[C@H](c2cc(-c3cc4cc(C)cc(OC)c4s3)c3c(N)ncnn23)C1 stands at 33

====

Target: FGFR2 (E565G) (Homo sapiens, UniProt P21802, E565G)
Sequence (P21802 22-821 E565G): as the sequence (P21802 22-821 V564F) above, with F543V, E544G counted along it
Test: 33P isotope-labeled kinase activity assay, mutant FGFR2 (E565G)
Conditions: ATP 10 μM
experimental-readout: pIC50
Scale: pIC50 equals -log10([C]), with [C] in mol/L.

Memo: C=CC(=O)N1CC[C@H](c2cc(-c3cc4cc(C)cc(OC)c4s3)c3c(N)ncnn23)C1 [compound represented by Formula (I)] , reported pIC50: 10.00

====

Biological target: FGFR4 (V550M) (Homo sapiens, UniProt P22455, V550M)
Sequence (P22455 22-802 V550M): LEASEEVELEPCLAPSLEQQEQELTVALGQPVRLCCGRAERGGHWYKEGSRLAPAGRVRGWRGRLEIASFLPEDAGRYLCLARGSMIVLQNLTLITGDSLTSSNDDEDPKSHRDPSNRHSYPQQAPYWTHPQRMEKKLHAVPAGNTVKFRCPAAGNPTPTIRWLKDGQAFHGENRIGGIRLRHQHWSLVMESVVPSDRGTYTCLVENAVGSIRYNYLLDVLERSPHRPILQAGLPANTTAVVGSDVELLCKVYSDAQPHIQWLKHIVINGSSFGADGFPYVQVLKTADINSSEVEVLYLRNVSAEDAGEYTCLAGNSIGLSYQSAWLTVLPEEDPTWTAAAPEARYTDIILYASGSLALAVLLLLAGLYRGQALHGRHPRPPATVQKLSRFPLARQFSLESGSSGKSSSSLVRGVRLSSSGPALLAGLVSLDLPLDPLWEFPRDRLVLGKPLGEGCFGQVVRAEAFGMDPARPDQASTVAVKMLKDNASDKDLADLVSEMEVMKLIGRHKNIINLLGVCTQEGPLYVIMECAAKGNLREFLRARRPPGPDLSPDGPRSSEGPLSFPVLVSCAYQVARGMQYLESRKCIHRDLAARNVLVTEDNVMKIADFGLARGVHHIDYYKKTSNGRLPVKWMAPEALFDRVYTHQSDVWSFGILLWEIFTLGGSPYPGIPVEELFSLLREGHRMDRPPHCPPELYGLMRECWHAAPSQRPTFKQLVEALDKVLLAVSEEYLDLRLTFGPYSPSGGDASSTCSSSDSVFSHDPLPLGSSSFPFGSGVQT
Assay: 33P isotope-labeled kinase activity assay, mutant FGFR4 (V550M)
Settings: ATP 2.5 μM
experimental-readout: pIC50
Please report pIC50 as the negative decimal logarithm of the molar concentration, giving only the number.

Entry C=CC(=O)N1CC[C@H](c2cc(-c3cc4cc(C)cc(OC)c4s3)c3c(N)ncnn23)C1 — recorded pIC50 = 8.25

====

Target: FGFR4 (N535K) (Homo sapiens, UniProt P22455, N535K)
Sequence (P22455 22-802 N535K): as the sequence (P22455 22-802 V550M) above, with N514K, M529V counted along it
Assay: 33P isotope-labeled kinase activity assay, mutant FGFR4 (N535K)
Settings: ATP 2.5 μM
Description: IC50 was determined by using ^33P isotope-labeled kinase activity assay (Reaction Biology Corp), to evaluate the inhibitory ability of the test compound against mutant FGFR. Test procedures: At room temperature, test compound was dissolved in DMSO to prepare a 10 mM solution. […] After washing the filter paper with a 0.75% phosphoric acid solution repeatedly, the radioactivity of the phosphorylated substrate left on the filter paper was measured. […]
experimental-readout: IC50

IC50 recorded for this compound, C=CC(=O)N1CC[C@H](c2cc(-c3cc4cc(C)cc(OC)c4s3)c3c(N)ncnn23)C1 [compound represented by Formula (I)] , is 34 nM

====

Target: FGFR3 (V555M) (Homo sapiens, UniProt P22607, V555M)
Sequence (P22607 23-806 V555M): as the sequence (P22607 23-806 K650M) above, with V533M, M628K counted along it
Experiment: 33P isotope-labeled kinase activity assay, mutant FGFR3 (V555M)
Conditions: ATP 20 μM
experimental-readout: pIC50
# pIC50 = -log10(concentration in molar units)

Kindly note the recorded pIC50 for C=CC(=O)N1CC[C@H](c2cc(-c3cc4cc(C)cc(OC)c4s3)c3c(N)ncnn23)C1 , which is 8.14
